The reader will find reported MIC values listed item by item below.
# System: E. coli ATCC 25922
# assayProcedure: Broth microdilution MIC, E. coli ATCC 25922
# Format: cell-based, Escherichia coli
# testSettings: E. coli ATCC 25922; +Fe: CAMHB + Fe; read-out: Minimum inhibitory concentrations
# Method: Cefiderocol, a siderophore cephalosporin, was used as a positive control. Compound 18a was only tested on E. coli in both media conditions. […] The single-gene knock-out mutant strain of E. coli JW5503 (tolC knock-out) was obtained from the E. coli collection of the National BioResource Project at the National Institute of Genetics (Japan).[45] […] Preliminary screening was performed at 50 μM, and growth inhibition was measured after 24 h incubation at 37 °C. […]

// worked examples, MIC included
O=C(NCc1cc(=O)c(O)co1)c1ccc2nc(NC(=O)c3cc(Br)c(Br)[nH]3)sc2c1 [Compound 10]; >50 µM
Cc1[nH]c(C(=O)Nc2nc3c(OCc4cc(=O)c(O)c[nH]4)cc(C(=O)O)cc3s2)c(Cl)c1Cl [Compound 18b]; >50 µM
O=C(O)c1cc(OCc2cc(=O)c(O)c[nH]2)c2nc(NC(=O)c3cc(Br)c(Br)[nH]3)sc2c1 [Compound 18a]; >50 µM
O=C(NCc1cc(=O)c(O)c[nH]1)c1ccc2nc(NC(=O)c3cc(Br)c(Br)[nH]3)sc2c1 [Compound 12]; >50 µM

Reported MIC for CC(C)(O/N=C(\C(=O)N[C@@H]1C(=O)N2C(C(=O)[O-])=C(C[N+]3(CCNC(=O)c4ccc(O)c(O)c4Cl)CCCC3)CS[C@H]12)c1csc(N)n1)C(=O)O [Cefiderocol, reference compound] was 0.25 µM
